test system: soluble epoxide hydrolase (sEH); assay: Fluorescent assay for soluble epoxide hydrolase (CMNPC substrate), percent inhibition at the recited concentration; type: biochemical; conditions: Inhibition Conc. 200 nM
Quantity name: % inh. (%)

CC(C)(C)S(=O)(=O)N1CCC(NC(=O)NC23CC4CC(CC(C4)C2)C3)CC1 ... 95
CC(C)S(=O)(=O)N1CCC(NC(=O)Nc2ccc(OC(F)(F)F)cc2)CC1 ... 94
CC(=O)N1CCC(NC(=O)NC23CC4CC(C2)C(=O)C(C4)C3)CC1 ... 42
CC(=O)N1CCC(NC(=O)NC23CCC(C)(CC2)CC3)CC1 ... 84
CC(=O)N1CCC(NC(=O)N2CCC(NC(=O)NC34CC5CC(CC(C5)C3)C4)CC2)CC1 ... 90
CC(C)(C)OC(=O)N1CCC(NC(=O)NC2CCC2)CC1 ... 76
O=C(NC1CCN(S(=O)(=O)CCCO)CC1)NC12CC3CC(CC(C3)C1)C2 ... 99
CC(=O)N1CCC(NC(=O)NC23CC4CC(C2)C(F)C(C4)C3)CC1 (centres unmarked) ... 88

----------
test system: soluble epoxide hydrolase (sEH); assay: Fluorescent assay for soluble epoxide hydrolase (CMNPC substrate), percent inhibition at the recited concentration; type: biochemical; details: Inhibition Conc. 2000 nM
The following molecules are shown together with reported % inh. values.
Quantity name: % inh.

CC(=O)N1CCC(NC(=O)Nc2ccc(C#N)cc2)CC1 [Compound 7-80] ... 80%
CC(=O)N1CCC(NC(=O)Nc2ccc(S(C)(=O)=O)cc2)CC1 [Compound 7-60] ... 33%
CC(=O)N1CCC(NC(=O)NC2CCC(F)(F)CC2)CC1 [Compound 7-62] ... 82%
CC(=O)N1CCC(NC(=O)Nc2ccc(N3CCOCC3)cc2)CC1 [Compound 7-87] ... 0%
COc1ccc(CNC(=O)NC2CCN(C(C)=O)CC2)cc1OC [Compound 1-5] ... 66%
CC(=O)N1CCC(NC(=O)NC2CCOCC2)CC1 [Compound 8-4] ... 23%
CC(C)(C)OC(=O)N1CCC(NC(=O)Nc2ccc(N3CCOCC3)cc2)CC1 [Compound 7-86] ... 90%
O=C(Nc1ccc(OC(F)(F)F)cc1)NC1CCN(c2ccccc2)CC1 [Compound 2-9] ... 99%
CC(C)(C)OC(=O)N1CCC(NC(=O)Nc2ccc(C(=O)O)cc2)CC1 [Compound 7-54] ... 55%

----------
system: soluble epoxide hydrolase (sEH); experiment: Fluorescent assay for soluble epoxide hydrolase (CMNPC substrate), percent inhibition at the recited concentration; format: biochemical; details: Inhibition Conc. 50 nM
The following molecules are shown together with reported % inh. values.
Quantity name: % inh.

CC(C)OC(=O)N1CCC(NC(=O)NC23CC4CC(CC(C4)C2)C3)CC1 ... 93%
CC(C)OC(=O)N1CCC(NC(=O)Nc2ccc(OC(F)(F)F)cc2)CC1 ... 99%
O=C(NC1CCN(S(=O)(=O)Cc2ccccc2)CC1)NC12CC3CC(CC(C3)C1)C2 ... 93%
CC(C)OC(=O)N1CCC(NC(=O)Nc2ccc(C(F)(F)F)cc2)CC1 ... 95%
CNS(=O)(=O)c1cccc(C(=O)N2CCC(NC(=O)Nc3ccc(C(F)(F)F)cc3)CC2)c1 ... 99%
O=C(NC1CCN(S(=O)(=O)c2ccccc2C(F)(F)F)CC1)NC12CC3CC(CC(C3)C1)C2 ... 97%
O=C(NC1CCN(S(=O)(=O)c2ccccc2)CC1)NC12CC3CC(CC(C3)C1)C2 ... 97%
CNS(=O)(=O)c1ccc(C(=O)N2CCC(NC(=O)Nc3ccc(C(F)(F)F)cc3)CC2)cc1 ... 92%
O=C(NC1CCN(S(=O)(=O)c2ccc(C(=O)O)cc2)CC1)NC12CC3CC(CC(C3)C1)C2 ... 92%
NC(=O)c1cccnc1N1CCC(NC(=O)Nc2ccc(C(F)(F)F)cc2)CC1 ... 60%
O=C(Nc1ccc(C(F)(F)F)cc1)NC1CCN(c2ccc(C(F)(F)F)cn2)CC1 ... 13%
Cc1c(Cl)cccc1S(=O)(=O)N1CCC(NC(=O)NC23CC4CC(CC(C4)C2)C3)CC1 ... 91%
O=C(NC1CCN(S(=O)(=O)c2ccc(Cl)c(Cl)c2)CC1)NC12CC3CC(CC(C3)C1)C2 ... 100%
CNS(=O)(=O)c1cccc(C(=O)N2CCC(NC(=O)Nc3ccc(OC(F)(F)F)cc3)CC2)c1 ... 93%
O=C(Nc1ccc(C(F)(F)F)cc1)NC1CCN(C(=O)Nc2ccc(C(F)(F)F)cc2)CC1 ... 98%
CC(C)(C)OC(=O)N1CCC(NC(=O)Nc2ccc(Oc3ccccc3)cc2)CC1 ... 92%
O=C(NC1CCN(S(=O)(=O)c2cccc(C(F)(F)F)c2)CC1)NC12CC3CC(CC(C3)C1)C2 ... 100%

----------
system: soluble epoxide hydrolase (sEH); test: Fluorescent assay for soluble epoxide hydrolase (CMNPC substrate), percent inhibition at the recited concentration; type: biochemical; details: Inhibition Conc. 50 nM
Quantity name: % inh. (%)

CCOC(=O)N1CCC(NC(=O)Nc2ccc(C(F)(F)F)cc2)CC1 ... 93
O=C(NC1CCN(S(=O)(=O)c2ccc3ccccc3c2)CC1)NC12CC3CC(CC(C3)C1)C2 ... 99
CC(C)(C)c1ccc(S(=O)(=O)N2CCC(NC(=O)NC34CC5CC(CC(C5)C3)C4)CC2)cc1 ... 97
COc1ccc(S(=O)(=O)N2CCC(NC(=O)NC34CC5CC(CC(C5)C3)C4)CC2)cc1 ... 99
CS(=O)(=O)c1ccc(S(=O)(=O)N2CCC(NC(=O)NC34CC5CC(CC(C5)C3)C4)CC2)cc1 ... 92
O=C(NC1CCCCC1)NC1CCN(S(=O)(=O)c2ccc(Cl)cc2)CC1 ... 95
CC(C)(C)OC(=O)N1CCC(NC(=O)Nc2ccc(C(F)(F)F)cc2)CC1 ... 100
CC(=O)N1CCC(NC(=O)NC2CCC(C)(C)CC2)CC1 ... 70
O=C(Nc1ccc(C(F)(F)F)cc1)NC1CCN(c2ccccc2)CC1 ... 99
O=C(NC1CCN(S(=O)(=O)c2ccc(C(F)(F)F)cc2)CC1)NC12CC3CC(CC(C3)C1)C2 ... 99
NS(=O)(=O)c1cccc(C(=O)N2CCC(NC(=O)Nc3ccc(C(F)(F)F)cc3)CC2)c1 ... 99
O=C(NC1CCCCC1)NC1CCN(S(=O)(=O)c2cccc(C(F)(F)F)c2)CC1 ... 81
NS(=O)(=O)c1ccc(C(=O)N2CCC(NC(=O)Nc3ccc(C(F)(F)F)cc3)CC2)cc1 ... 90
CNS(=O)(=O)c1ccc(C(=O)N2CCC(NC(=O)NC34CC5CC(CC(C5)C3)C4)CC2)cc1 ... 93
O=C(NC1CCN(S(=O)(=O)c2ccc(-c3ccccc3)cc2)CC1)NC12CC3CC(CC(C3)C1)C2 ... 96
O=C(Nc1ccc(C(F)(F)F)cc1)NC1CCN(c2ncccc2C(F)(F)F)CC1 ... 97
Cc1ccccc1S(=O)(=O)N1CCC(NC(=O)NC23CC4CC(CC(C4)C2)C3)CC1 ... 99
O=C(NC1CCN(S(=O)(=O)c2cccs2)CC1)NC12CC3CC(CC(C3)C1)C2 ... 94
CC(=O)N1CCC(NC(=O)NC2CCC3CCCCC3C2)CC1 (stereo not shown) ... 93
CN(C)C(=O)N1CCC(NC(=O)Nc2ccc(C(F)(F)F)cc2)CC1 ... 86
CC(C)(C)C(=O)N1CCC(NC(=O)Nc2ccc(OC(F)(F)F)cc2)CC1 ... 97
Cn1cnc(C(=O)N2CCC(NC(=O)NC34CC5CC(CC(C5)C3)C4)CC2)c1 ... 89
CC(C)(C)OC(=O)N1CCC(NC(=O)Nc2ccc3ncccc3c2)CC1 ... 86
Cc1nc(C(=O)N2CCC(NC(=O)NC34CC5CC(CC(C5)C3)C4)CC2)c(C)o1 ... 89
CCCOc1ccc(NC(=O)NC2CCN(C(=O)OC(C)(C)C)CC2)cc1 ... 80
CC(C)(C)C(=O)N1CCC(NC(=O)NC23CC4CC(CC(C4)C2)C3)CC1 ... 91
COC(=O)N1CCC(NC(=O)Nc2ccc(C(F)(F)F)cc2)CC1 ... 92
CC(=O)N1CCC(NC(=O)NC2CC3CCC2C3)CC1 (stereo not shown) ... 88
O=C(NC1CCN(c2ccccc2)CC1)NC12CC3CC(CC(C3)C1)C2 ... 98
CC(C)(C)OC(=O)N1CCC(NC(=O)Nc2ccc(S(=O)(=O)N3CCOCC3)cc2)CC1 ... 80
O=C(Nc1ccc(OC(F)(F)F)cc1)NC1CCN(C(=O)c2ccccn2)CC1 ... 98
O=C(NC1CCCCC1)NC1CCN(C(=O)c2ccccn2)CC1 ... 82
CC(C)(C)OC(=O)N1CCC(NC(=O)Nc2ccc3c(c2)CCC3)CC1 ... 92
CCC1CCC(NC(=O)NC2CCN(C(C)=O)CC2)CC1 (stereo not shown) ... 72
